test system: MDA-MB-231 breast; assay: NCI-60 one-dose screen, 48 h (100 = growth as untreated, 0 = no growth, -100 = all killed); settings: 10 µM unless noted
This is part of a sample that, as a whole, favours compounds with a hit. Of some 83,000 tested, about 20% had one in any assay. Calls of active or inactive are those of the source. Rule for the calls: active = growth percent below 10; inactive = the rest.
readout_name: growth

>>> val("OCCCCc1nccc2c1[nH]c1ccccc12")
"94.8% (inactive)"

Please report the recorded growth for `CCOC(=O)c1sc2ccc(NCc3nc[nH]c3C)cc2c1NC(=O)c1cc(OC)c(OC)c(OC)c1` .
73.3% (inactive)

Then this compound: `COc1cc2ccccc2cc1C(=O)NC(=S)Nc1ccc(-c2nc3ccccc3[nH]2)cc1`
52.9% (inactive)

Lookup `Cc1cnc(Nc2ccc(N3CCN(C)CC3)cc2)nc1Nc1ccc(Cl)c(NS(=O)(=O)C(C)(C)C)c1`
4.33% (active)

Same question for O=C(/C=C/C12c3ccccc3C(c3ccccc31)C1C(=O)NC(=O)C12)c1ccccc1 (stereo not given) please.
14% (inactive)

Also `O=S(=O)(Nc1ccsc1-c1nc(-c2ccccc2)no1)c1cc(Cl)cc(Cl)c1` ?
102% (inactive)

Continue with `COc1ccc(/C=C(\C#N)n2nnc3cc(F)c(F)cc32)c(OC)c1OC`
61.7% (inactive)

Likewise for `Nc1ccc(CCCCc2ccccc2)c(Cl)c1` ?
91.2% (inactive)

Same again, this time with `N#Cc1c(N)nc2c(nnn2-c2cccc(C(F)(F)F)c2)c1N`
78.3% (inactive)

And what about the compound `COc1ccc(NC(=O)C(=O)c2c[nH]c3ccc(F)cc23)cc1` ?
95.5% (inactive)

The reported numbers originate from PubChem BioAssay (NCI).
